- Test system: E. coli
- ASSAY_REMARKS: Fluorescence per cell, stained bacteria (microtiter plate reader)
- Format: cell-based, Escherichia coli
- CONDITIONS_USED: scaled to thiazole orange
Could you please report measured Normalized Fluorescence/cell (ex 485 nm/em 530 nm), Escherichia coli for the items listed next?
Reply with just the number.

Recorded Normalized Fluorescence/cell (ex 485 nm/em 530 nm), Escherichia coli (compound CC1=CC(=Cc2sc3ccccc3[n+]2C)c2ccccc2N1c1ccccc1 [compound 613] ): 6

Recorded Normalized Fluorescence/cell (ex 485 nm/em 530 nm), Escherichia coli (compound CCN(CC)C1=CC(=Cc2sc3ccccc3[n+]2C)c2ccccc2N1c1ccccc1 [compound 619] ): 13

Recorded Normalized Fluorescence/cell (ex 485 nm/em 530 nm), Escherichia coli (compound CCCCC1=CC(=Cc2sc3ccccc3[n+]2C)c2ccccc2N1c1ccccc1 [compound 61] ): 5

Recorded Normalized Fluorescence/cell (ex 485 nm/em 530 nm), Escherichia coli (compound COC1=CC(=Cc2sc3ccccc3[n+]2C)c2ccccc2N1c1ccccc1 [compound 628] ): 14

Recorded Normalized Fluorescence/cell (ex 485 nm/em 530 nm), Escherichia coli (compound CN1C(=Cc2cc[n+](C)c3ccccc23)Sc2ccccc21 [Thiazole Orange, reference compound] ): 1

Recorded Normalized Fluorescence/cell (ex 485 nm/em 530 nm), Escherichia coli (compound CCCCC1=CC(=Cc2oc3ccccc3[n+]2C)c2ccccc2N1c1ccccc1 [compound 624] ): 12

Recorded Normalized Fluorescence/cell (ex 485 nm/em 530 nm), Escherichia coli (compound C[n+]1c(C=C2C=C(Cl)N(c3ccccc3)c3ccccc32)sc2ccccc21 [compound 591] ): 1

Recorded Normalized Fluorescence/cell (ex 485 nm/em 530 nm), Escherichia coli (compound C[n+]1c(C=C2C=CN(c3ccccc3)c3ccccc32)sc2ccccc21 [dye 63] ): 3

Recorded Normalized Fluorescence/cell (ex 485 nm/em 530 nm), Escherichia coli (compound CCCCCCN1C=CC(=Cc2sc3ccccc3[n+]2C)c2ccccc21 [compound 634] ): 2

====

- Test system: DNA
- ASSAY_REMARKS: Quantum yield of dye on DNA versus fluorescein
- Type: physicochemical
- CONDITIONS_USED: Table 7; on DNA, fluorescein reference
MEASUREMENT_KIND: QY
Reply with just the number.

Recorded QY (compound CCCCCCN1C=CC(=Cc2sc3ccccc3[n+]2C)c2ccccc21 ): 0.18

Recorded QY (compound CCCCC1=CC(=Cc2oc3ccccc3[n+]2C)c2ccccc2N1c1ccccc1 ): 0.58

Recorded QY (compound CCN(CC)C1=CC(=Cc2sc3ccccc3[n+]2C)c2ccccc2N1c1ccccc1 ): 0.62

Recorded QY (compound CCCCC1=CC(=Cc2sc3ccccc3[n+]2C)c2ccccc2N1c1ccccc1 ): 0.46

Recorded QY (compound C[n+]1c(C=C2C=CN(c3ccccc3)c3ccccc32)sc2ccccc21 ): 0.24

Recorded QY (compound CC1=CC(=Cc2sc3ccccc3[n+]2C)c2ccccc2N1c1ccccc1 ): 0.33

Recorded QY (compound COC1=CC(=Cc2sc3ccccc3[n+]2C)c2ccccc2N1c1ccccc1 ): 0.40

Recorded QY (compound C[n+]1c(C=C2C=C(Cl)N(c3ccccc3)c3ccccc32)sc2ccccc21 ): 0.09

Recorded QY (compound CN1C(=Cc2cc[n+](C)c3ccccc23)Sc2ccccc21 [Thiazole Orange, reference compound] ): 0.18

====

- Test system: nucleic acids
- ASSAY_REMARKS: Excitation/emission maxima of dyes complexed with nucleic acids
- Assay type: physicochemical
- Set-up: key: wavelength in nm
- CONDITIONS_USED: Table 2; dye complexed with nucleic acids
Could you please report measured EM max for the items listed next?
Reply with just the number.

Recorded EM max (compound CCN(CC)C1=CC(=Cc2sc3ccccc3[n+]2C)c2ccccc2N1c1ccccc1 ): 517

Recorded EM max (compound CN1C(=Cc2cc[n+](C)c3ccccc23)Sc2ccccc21 [Thiazole Orange, reference compound] ): 530

Recorded EM max (compound CN1C(=Cc2cc[n+](C3CCCCC3)c3ccccc23)Sc2ccccc21 [compound 542] ): 527

Recorded EM max (compound CN1C(C2CCCCC2)=CC(=Cc2sc3ccccc3[n+]2C)c2ccccc21 ): 523

====

- Tested on: nucleic acids
- ASSAY_REMARKS: Excitation/emission maxima of dyes complexed with nucleic acids
- Assay type: physicochemical
- Design: key: wavelength in nm
- CONDITIONS_USED: Table 2; dye complexed with nucleic acids
MEASUREMENT_KIND: EM max
Reply with just the number.

The recorded EM max with nucleic acids for CCCCC1=CC(=Cc2oc3ccccc3[n+]2C)c2ccccc2N1c1ccccc1 was 501

The recorded EM max with nucleic acids for C[n+]1c(C=C2C=Cc3ccccc3N2c2ccccc2)sc2ccccc21 was 523

The recorded EM max with nucleic acids for C[n+]1c(C=C2C=C(F)N(c3ccccc3)c3ccccc32)sc2ccccc21 was 507

The recorded EM max with nucleic acids for C[n+]1c(C=C2C=C(C3CCCCC3)N(c3ccccc3)c3ccccc32)sc2ccccc21 was 524

====

- Test system: DNA
- ASSAY_REMARKS: Quantum yield of dye on DNA versus fluorescein
- Type: physicochemical
- CONDITIONS_USED: QY divided by QY of thiazole orange
Normalized QY less than 2 is met; Normalized QY greater than or equal to 2 is not met.

[in] Say whether its Normalized QY is strictly beneath 2. Entry: CCCCC1=CC(=Cc2sc3ccccc3[n+]2C)c2ccccc2N1c1ccccc1 [compound 61]
[out] not met

[in] Say whether its Normalized QY is strictly beneath 2. Entry: CN1C(=Cc2cc[n+](C)c3ccccc23)Sc2ccccc21 [Thiazole Orange, reference compound]
[out] met

[in] Say whether its Normalized QY is strictly beneath 2. Entry: COC1=CC(=Cc2sc3ccccc3[n+]2C)c2ccccc2N1c1ccccc1 [compound 628]
[out] not met

[in] Say whether its Normalized QY is strictly beneath 2. Entry: CCN(CC)C1=CC(=Cc2sc3ccccc3[n+]2C)c2ccccc2N1c1ccccc1 [compound 619]
[out] not met

[in] Say whether its Normalized QY is strictly beneath 2. Entry: CCCCC1=CC(=Cc2oc3ccccc3[n+]2C)c2ccccc2N1c1ccccc1 [compound 624]
[out] not met

[in] Say whether its Normalized QY is strictly beneath 2. Entry: C[n+]1c(C=C2C=C(Cl)N(c3ccccc3)c3ccccc32)sc2ccccc21 [compound 591]
[out] met

[in] Say whether its Normalized QY is strictly beneath 2. Entry: CC1=CC(=Cc2sc3ccccc3[n+]2C)c2ccccc2N1c1ccccc1 [compound 613]
[out] met

[in] Say whether its Normalized QY is strictly beneath 2. Entry: CCCCCCN1C=CC(=Cc2sc3ccccc3[n+]2C)c2ccccc21 [compound 634]
[out] met

[in] Say whether its Normalized QY is strictly beneath 2. Entry: C[n+]1c(C=C2C=CN(c3ccccc3)c3ccccc32)sc2ccccc21 [dye 63]
[out] met

====

- Test system: nucleic acids
- ASSAY_REMARKS: Excitation/emission maxima of dyes complexed with nucleic acids
- Format: physicochemical
- Design: key: wavelength in nm
- CONDITIONS_USED: Table 2; dye complexed with nucleic acids
MEASUREMENT_KIND: EM max
Reply with just the number.

Recorded EM max (compound CCN1C(=Cc2cc(Cl)[n+](-c3ccccc3)c3ccccc23)Sc2ccccc21 [compound 200] ): 759

Recorded EM max (compound C[n+]1c(C=C2C=C(Oc3ccccc3)N(c3ccccc3)c3ccccc32)sc2ccccc21 [compound 835] ): 518

Recorded EM max (compound CCCCC1=CC(=CC=Cc2oc3ccccc3[n+]2C)c2ccccc2N1c1ccccc1 [compound 637] ): 622

Recorded EM max (compound C[n+]1c(C=C2C=C(Cl)N(c3ccccc3)c3ccccc32)sc2ccccc21 [compound 591] ): 532

Recorded EM max (compound CCN(CC)C1=CC(=Cc2sc3ccccc3[n+]2C)c2ccc(OC)cc2N1c1ccccc1 [compound 760] ): 510

Recorded EM max (compound CC(C)OC1=CC(=Cc2sc3ccccc3[n+]2C)c2ccccc2N1c1ccccc1 [compound 764] ): 508

Recorded EM max (compound C[n+]1c(C=C2C=C(Cl)N(C3CCCCC3)c3ccccc32)sc2ccccc21 [780 (Cl)] ): 536

Recorded EM max (compound C[n+]1c(C=C2C=C(c3ccccc3)N(c3ccccc3)c3ccccc32)sc2ccccc21 [compound 630] ): 544

====

- Tested on: nucleic acids
- ASSAY_REMARKS: Excitation/emission maxima of dyes complexed with nucleic acids
- Type: physicochemical
- Parameters: key: wavelength in nm
- CONDITIONS_USED: Table 2; dye complexed with nucleic acids
Could you please report measured EM max for the items listed next?
Reply with just the number.

Recorded EM max (molecule COc1ccc2c(c1)N(c1ccccc1)C(Cl)=CC2=Cc1sc2ccccc2[n+]1C ): 530

Recorded EM max (molecule C[n+]1c(C=C2C=C(Br)N(c3ccccc3)c3ccccc32)sc2ccccc21 ): 533

Recorded EM max (molecule C[n+]1c(C=C2C=C(Sc3ccccn3)N(c3ccccc3)c3ccccc32)sc2ccccc21 ): 555

Recorded EM max (molecule CN1C(=Cc2cc(Cl)[n+](-c3cccs3)c3ccccc23)Sc2ccccc21 ): 533

Recorded EM max (molecule CCCCc1cc(C=C2Sc3ccccc3N2C)c2ccccc2[n+]1-c1cccs1 ): 526

Recorded EM max (molecule CN1C(=Cc2cc(N3CCOCC3)[n+](C)c3ccccc23)Sc2ccccc21 ): 518

Recorded EM max (molecule C[n+]1c(C=C2C=CN(c3ccccc3)C(Cl)=C2)sc2ccccc21 ): 504

Recorded EM max (molecule COC1=CC(=Cc2sc3ccccc3[n+]2C)c2ccccc2N1c1ccccc1 ): 506
